# TARGET_UNDER_TEST: T1, orthogonal hCD122 receptor (hoRb), hCD122 with H133D and Y134F (human, UniProt P14784 27-550); further: reference of the scale not given here
# T1 sequence: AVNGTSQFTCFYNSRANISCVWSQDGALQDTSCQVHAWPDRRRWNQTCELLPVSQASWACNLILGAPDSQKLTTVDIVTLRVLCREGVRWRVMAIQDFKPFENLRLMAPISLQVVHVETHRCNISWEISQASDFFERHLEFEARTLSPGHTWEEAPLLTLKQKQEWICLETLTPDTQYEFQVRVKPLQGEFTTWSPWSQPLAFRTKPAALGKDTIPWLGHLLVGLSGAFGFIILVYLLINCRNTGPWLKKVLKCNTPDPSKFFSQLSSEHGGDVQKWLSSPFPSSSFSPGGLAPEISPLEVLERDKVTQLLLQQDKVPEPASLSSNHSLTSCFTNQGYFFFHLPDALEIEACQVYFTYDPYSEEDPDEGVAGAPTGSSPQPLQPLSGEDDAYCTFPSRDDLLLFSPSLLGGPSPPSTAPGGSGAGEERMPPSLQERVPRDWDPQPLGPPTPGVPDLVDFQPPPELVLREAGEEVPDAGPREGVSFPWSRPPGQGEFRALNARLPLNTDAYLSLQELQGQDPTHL
# EXPERIMENTAL_DETAILS: cell-based or functional assay
This listing pairs binders with measured Relative Proliferation Fold Change 3F8 1:2.
Write down the numeric answer in fold and omit the unit.

Solved entries:
[
  {
    "BINDER": "T3G, SQVLKA (ligand) APGSSSTKKTQLQLSQLLVLLKAILNGINNYKNPKLTRMLTFKFYMPKKATELKHLQCLEEELKPLEEVLNLAQSKNFHLRPRDLISNINVIVLELKGSETTFMCEYADETATIVEFLNRWITFCQSIISTLT",
    "MEASURED": 20.4
  },
  {
    "BINDER": "ΔM23, SQVLK- (ligand) APTSSSTKKTQLQLSQLLVLLKILNGINNYKNPKLTRMLTFKFYMPKKATELKHLQCLEEELKPLEEVLNLAQSKNFHLRPRDLISNINVIVLELKGSETTFMCEYADETATIVEFLNRWITFCQSIISTLT",
    "MEASURED": 12.9
  },
  {
    "BINDER": "SQVLIA (ligand) APTSSSTKKTQLQLSQLLVLLIAILNGINNYKNPKLTRMLTFKFYMPKKATELKHLQCLEEELKPLEEVLNLAQSKNFHLRPRDLISNINVIVLELKGSETTFMCEYADETATIVEFLNRWITFCQSIISTLT",
    "MEASURED": 0.45
  },
  {
    "BINDER": "T3K, SQVLKA (ligand) APKSSSTKKTQLQLSQLLVLLKAILNGINNYKNPKLTRMLTFKFYMPKKATELKHLQCLEEELKPLEEVLNLAQSKNFHLRPRDLISNINVIVLELKGSETTFMCEYADETATIVEFLNRWITFCQSIISTLT",
    "MEASURED": 50.9
  },
  {
    "BINDER": "ΔT3, SQVLKA (ligand) APSSSTKKTQLQLSQLLVLLKAILNGINNYKNPKLTRMLTFKFYMPKKATELKHLQCLEEELKPLEEVLNLAQSKNFHLRPRDLISNINVIVLELKGSETTFMCEYADETATIVEFLNRWITFCQSIISTLT",
    "MEASURED": 30.5
  },
  {
    "BINDER": "SQVLLA (ligand) APTSSSTKKTQLQLSQLLVLLLAILNGINNYKNPKLTRMLTFKFYMPKKATELKHLQCLEEELKPLEEVLNLAQSKNFHLRPRDLISNINVIVLELKGSETTFMCEYADETATIVEFLNRWITFCQSIISTLT",
    "MEASURED": 59.8
  }
]

Next, consider the following binder.
For N88Q, SQVLKA (ligand) APTSSSTKKTQLQLSQLLVLLKAILNGINNYKNPKLTRMLTFKFYMPKKATELKHLQCLEEELKPLEEVLNLAQSKNFHLRPRDLISQINVIVLELKGSETTFMCEYADETATIVEFLNRWITFCQSIISTLT , write its Relative Proliferation Fold Change 3F8 1:2.
1.25
